Taken from patent US20130053430A1.

# key: entry, value: percent inhibition of CETP
tested on: human CETP mRNA; experiment: Dose-dependent antisense inhibition of human CETP in SW872 liposarcoma cells (Example 2); format: cell-based; details: 50 nM, Lipofectin, ~16 hours (Example 2)
Strand notation (5' to 3'): a small letter for the sugar, then the base; units joined by * are phosphorothioate-linked, units joined directly phosphodiester-linked; [ ] holds rarer units or linkages, { } end groups; capitals alone tell only the bases. e = 2'-O-(2-methoxyethyl) (MOE); [5mC] = 5-methylcytosine; d = 2'-deoxy (DNA)
Report field: quantity (unit follows the number).

- ISIS 349490: 5-10-5 MOE gapmer CCTCTTGGAAGATTTCCTGG (e[5mC]*e[5mC]*eT*e[5mC]*eT*dT*dG*dG*dA*dA*dG*dA*dT*dT*dT*e[5mC]*e[5mC]*eT*eG*eG): 97%
- ISIS 349465: 5-10-5 MOE gapmer GAGACATCAATGGACTTGGC (eG*eA*eG*eA*e[5mC]*dA*dT*d[5mC]*dA*dA*dT*dG*dG*dA*d[5mC]*eT*eT*eG*eG*e[5mC]): 96%
- ISIS 349506: 5-10-5 MOE gapmer CGCCTTTGCTGTTCATGAGG (e[5mC]*eG*e[5mC]*e[5mC]*eT*dT*dT*dG*d[5mC]*dT*dG*dT*dT*d[5mC]*dA*eT*eG*eA*eG*eG): 93%
- ISIS 349517: 5-10-5 MOE gapmer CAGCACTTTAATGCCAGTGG (sugars from the 5' end e5 d10 e5, backbone and methylation of C not given here): 100%

Look up percent inhibition of CETP with human CETP mRNA for this substance: ISIS 349512: 5-10-5 MOE gapmer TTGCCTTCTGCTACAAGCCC (sugars from the 5' end e5 d10 e5, backbone and methylation of C not given here)
86%
